- assay.remarks: Half life in Sprague-Dawley rat plasma at 10 mg/kg, po
- Assay type: ADME, organism-based
- Design: dose 10 mg/kg, route oral
measured.attribute: half-life (h)
Record the value in h, omitting the unit from your answer.

Q: Report half-life for CC(C)c1ccc(-c2ccccc2C(=O)Nc2ccc3nc(C(=O)N[C@H](C(=O)N(C)Cc4ccc(F)cc4)c4ccccc4)sc3c2)cc1
Ans: 7.91

----------
- assay.remarks: Cmax in Sprague-Dawley rat plasma at 30 mg/kg, po
- Format: ADME, organism-based
- Parameters: dose 30 mg/kg, route oral
measured.attribute: Cmax
Express the reported value numerically, then name its unit.

Q: Report Cmax for CC(C)c1ccc(-c2ccccc2C(=O)Nc2ccc3nc(C(=O)N[C@H](C(=O)N(C)Cc4ccc(F)cc4)c4ccccc4)sc3c2)cc1
Ans: 49.5 ng/mL

----------
- assay.remarks: Half life in Sprague-Dawley rat plasma at 30 mg/kg, po
- Assay type: ADME, organism-based
- Parameters: dose 30 mg/kg, route oral
measured.attribute: half-life (h)
Record the value in h, omitting the unit from your answer.

Q: Report half-life for CC(C)c1ccc(-c2ccccc2C(=O)Nc2ccc3nc(C(=O)N[C@H](C(=O)N(C)Cc4ccc(F)cc4)c4ccccc4)sc3c2)cc1
Ans: 10.4

----------
- Test system: Mus musculus
- assay.remarks: Decrease in body weight in […] at 10 mg/kg, po daily for 3 days
- Format: functional, C57BL/6
- Parameters: scale not given: the % may be the effect or the level left
Active and inactive are the calls of the source. The calls are words filed in the database; no cut-off is given here.

compound.string | Activity
CC(C)c1ccc(-c2ccccc2C(=O)Nc2ccc3nc(C(=O)N[C@H](C(=O)N(C)Cc4ccc(F)cc4)c4ccccc4)sc3c2)cc1 | 4%
CN(Cc1ccc(F)cc1)C(=O)[C@@H](NC(=O)c1nc2ccc(NC(=O)c3ccccc3-c3cn4ccsc4n3)cc2s1)c1ccccc1 | inactive
CN(Cc1ccc(F)cc1)C(=O)[C@@H](NC(=O)c1nc2ccc(NC(=O)c3ccccc3-c3nc(C(C)(C)C)cs3)cc2s1)c1ccccc1 | inactive

----------
- assay.remarks: Cmax in Sprague-Dawley rat liver at 3 mg/kg, po
- Format: ADME, organism-based
- Parameters: dose 3 mg/kg, route oral
measured.attribute: Cmax
Express the reported value numerically, then name its unit.

Q: Report Cmax for CC(C)c1ccc(-c2ccccc2C(=O)Nc2ccc3nc(C(=O)N[C@H](C(=O)N(C)Cc4ccc(F)cc4)c4ccccc4)sc3c2)cc1
Ans: 57 µg/kg

----------
- assay.remarks: AUC (0 to infinity) in Sprague-Dawley rat liver at 3 mg/kg, po
- Assay type: ADME, organism-based
- Set-up: time infinity, dose 3 mg/kg, route oral
measured.attribute: AUC(0-inf) (ng·h/mL)
Record the value in ng·h/mL, omitting the unit from your answer.

Q: Report AUC(0-inf) for CC(C)c1ccc(-c2ccccc2C(=O)Nc2ccc3nc(C(=O)N[C@H](C(=O)N(C)Cc4ccc(F)cc4)c4ccccc4)sc3c2)cc1
Ans: 1220

----------
- assay.remarks: Cmax in Sprague-Dawley rat liver at 30 mg/kg, po
- Type: ADME, organism-based
- Parameters: dose 30 mg/kg, route oral
measured.attribute: Cmax (µg/kg)
Record the value in µg/kg, omitting the unit from your answer.

Q: Report Cmax for CC(C)c1ccc(-c2ccccc2C(=O)Nc2ccc3nc(C(=O)N[C@H](C(=O)N(C)Cc4ccc(F)cc4)c4ccccc4)sc3c2)cc1
Ans: 73.1

----------
- assay.remarks: AUC (0 to infinity) in Sprague-Dawley rat plasma at 10 mg/kg, po
- Assay type: ADME, organism-based
- Design: time infinity, dose 10 mg/kg, route oral
measured.attribute: AUC(0-inf) (ng·h/mL)
Record the value in ng·h/mL, omitting the unit from your answer.

Q: Report AUC(0-inf) for CC(C)c1ccc(-c2ccccc2C(=O)Nc2ccc3nc(C(=O)N[C@H](C(=O)N(C)Cc4ccc(F)cc4)c4ccccc4)sc3c2)cc1
Ans: 224

----------
- assay.remarks: Half life in Sprague-Dawley rat plasma at 3 mg/kg, po
- Type: ADME, organism-based
- Parameters: dose 3 mg/kg, route oral
measured.attribute: half-life (h)
Record the value in h, omitting the unit from your answer.

Q: Report half-life for CC(C)c1ccc(-c2ccccc2C(=O)Nc2ccc3nc(C(=O)N[C@H](C(=O)N(C)Cc4ccc(F)cc4)c4ccccc4)sc3c2)cc1
Ans: 2.42

----------
- assay.remarks: Cmax in Sprague-Dawley rat plasma at 10 mg/kg, po
- Type: ADME, organism-based
- Parameters: dose 10 mg/kg, route oral
measured.attribute: Cmax (ng/mL)
Record the value in ng/mL, omitting the unit from your answer.

Q: Report Cmax for CC(C)c1ccc(-c2ccccc2C(=O)Nc2ccc3nc(C(=O)N[C@H](C(=O)N(C)Cc4ccc(F)cc4)c4ccccc4)sc3c2)cc1
Ans: 58

----------
- Tested on: Mus musculus
- assay.remarks: Decrease in body weight in […] at 10 mg/kg, po daily for 3 days
- Type: functional, C57BL/6
Active and inactive are the calls of the source. The calls are words filed in the database; no cut-off is given here.
// one of active, inactive, no free text

Use the examples below as a reference point.
compound.string | experimental.system | label.class
COc1cccc(C(=O)Nc2ccc3nc(C(=O)N[C@H](C(=O)N(C)Cc4ccc(F)cc4)c4ccccc4)sc3c2)c1-c1ccc(C(C)(C)C)cc1 | Mus musculus | active
CN(Cc1ccc(F)cc1)C(=O)[C@@H](NC(=O)c1nc2ccc(NC(=O)c3ccccc3-c3cn4ccccc4n3)cc2s1)c1ccccc1 | Mus musculus | inactive
Cc1cccc(C(=O)Nc2ccc3nc(C(=O)N[C@H](C(=O)N(C)Cc4ccc(F)cc4)c4ccccc4)sc3c2)c1-c1ccc(C(C)(C)C)cc1 | Mus musculus | active

Turning to the following molecule.
Q: Test call, this molecule: Cc1csc2nc(-c3ccccc3C(=O)Nc3ccc4nc(C(=O)N[C@H](C(=O)N(C)Cc5ccc(F)cc5)c5ccccc5)sc4c3)cn12
Ans: inactive

----------
- assay.remarks: AUC (0 to infinity) in Sprague-Dawley rat plasma at 3 mg/kg, po
- Assay type: ADME, organism-based
- Set-up: time infinity, dose 3 mg/kg, route oral
measured.attribute: AUC(0-inf)

Q: Report AUC(0-inf) for CC(C)c1ccc(-c2ccccc2C(=O)Nc2ccc3nc(C(=O)N[C@H](C(=O)N(C)Cc4ccc(F)cc4)c4ccccc4)sc3c2)cc1
Ans: 109 ng·h/mL

----------
- assay.remarks: Oral bioavailability in Sprague-Dawley rat at 3 mg/kg
- Format: ADME, organism-based
- protocol.conditions: in vivo
measured.attribute: bioavailability (%)
Record the value in %, omitting the unit from your answer.

Q: Report bioavailability for CC(C)c1ccc(-c2ccccc2C(=O)Nc2ccc3nc(C(=O)N[C@H](C(=O)N(C)Cc4ccc(F)cc4)c4ccccc4)sc3c2)cc1
Ans: 1.29

----------
- assay.remarks: Cmax in Sprague-Dawley rat liver at 100 mg/kg, po
- Type: ADME, organism-based
- Parameters: dose 100 mg/kg, route oral
measured.attribute: Cmax (µg/kg)
Record the value in µg/kg, omitting the unit from your answer.

Q: Report Cmax for CC(C)c1ccc(-c2ccccc2C(=O)Nc2ccc3nc(C(=O)N[C@H](C(=O)N(C)Cc4ccc(F)cc4)c4ccccc4)sc3c2)cc1
Ans: 84

----------
- assay.remarks: AUC (0 to infinity) in Sprague-Dawley rat plasma at 30 mg/kg, po
- Assay type: ADME, organism-based
- Design: time infinity, dose 30 mg/kg, route oral
measured.attribute: AUC(0-inf) (ng·h/mL)
Record the value in ng·h/mL, omitting the unit from your answer.

Q: Report AUC(0-inf) for CC(C)c1ccc(-c2ccccc2C(=O)Nc2ccc3nc(C(=O)N[C@H](C(=O)N(C)Cc4ccc(F)cc4)c4ccccc4)sc3c2)cc1
Ans: 510
